- TEST_SYSTEM: T1, 4H591-bA
- T1 chain: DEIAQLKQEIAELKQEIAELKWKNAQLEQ
- TEST_METHOD_NOTES: two-hybrid library CCNG1;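 note: natural log of median RNA to DNA barcode read ratio; higher means stronger binding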
RESULT_TYPE: interaction score

BINDER	QUANTITATIVE_READOUT
DENAQLEQKIAELKQENAELKWKIAQLEQ [4H1373-bA]	-0.592
DKNAQLEQENAELKQKIAELEWEIAQLKQ [4H3298-bA]	-0.699

(I) DKNAQLKQEIAELEQENAELKWKIAQLEQ [4H3613-bA]
(II) DKNAQLKQKIAELKQENAELEWKIAQLKQ [4H3926-bA]
stdin: Of I and II , whose reported interaction score is the larger number? Could you answer with the label of the item you picked?
stdout: I
(I: -0.523, II: -1.19)

# credit: paper PMC10397247
